System Tested: T1, human NMI (N-myc Interacting protein), recombinant protein (human, UniProt Q13287 1-307, limits assumed)
T1 construct: Gene ID: 9111; also called hNMI; antigen
T1 sequence (looked up): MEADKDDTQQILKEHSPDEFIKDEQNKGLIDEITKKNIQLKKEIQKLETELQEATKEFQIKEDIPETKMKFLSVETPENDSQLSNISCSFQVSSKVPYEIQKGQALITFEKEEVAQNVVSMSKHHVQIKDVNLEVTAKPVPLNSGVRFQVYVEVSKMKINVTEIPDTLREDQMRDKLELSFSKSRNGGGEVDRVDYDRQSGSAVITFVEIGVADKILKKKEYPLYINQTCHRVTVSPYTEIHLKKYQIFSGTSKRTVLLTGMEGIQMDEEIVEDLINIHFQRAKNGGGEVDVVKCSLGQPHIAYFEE
Assay Info: ELISA EC50 against parent B-8
Entries and their Fold decrease in affinity

Binder	Fold decrease in affinity
B-8 mutant S101Y (VH) (antibody, V domains shown) VH: QSLEESGGDLVKPGASLTLTCTASGFSFSSSYYMCWVRQAPGKGLEWIACIYAGSSGSTYYASWAKGRFTISKTSSTTVTLQMTSLTAADTATYFCAREYYYDDYGDFWGFNLWGPGTLVTVSS VL: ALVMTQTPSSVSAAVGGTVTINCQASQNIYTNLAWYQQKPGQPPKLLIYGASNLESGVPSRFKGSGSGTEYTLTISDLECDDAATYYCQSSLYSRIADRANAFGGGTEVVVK	> 500 fold
B-8 mutant S101K (VH) (antibody, V domains shown) VH: QSLEESGGDLVKPGASLTLTCTASGFSFSSSYYMCWVRQAPGKGLEWIACIYAGSSGSTYYASWAKGRFTISKTSSTTVTLQMTSLTAADTATYFCAREYKYDDYGDFWGFNLWGPGTLVTVSS VL: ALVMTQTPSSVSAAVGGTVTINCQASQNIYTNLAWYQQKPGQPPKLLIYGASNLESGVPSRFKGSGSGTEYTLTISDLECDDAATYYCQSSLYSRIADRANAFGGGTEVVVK	> 500 fold

Turning now to a further record.
Answer with reported Fold decrease in affinity of B-8 mutant G106K (VH) (antibody, V domains shown) VH: QSLEESGGDLVKPGASLTLTCTASGFSFSSSYYMCWVRQAPGKGLEWIACIYAGSSGSTYYASWAKGRFTISKTSSTTVTLQMTSLTAADTATYFCAREYSYDDYKDFWGFNLWGPGTLVTVSS VL: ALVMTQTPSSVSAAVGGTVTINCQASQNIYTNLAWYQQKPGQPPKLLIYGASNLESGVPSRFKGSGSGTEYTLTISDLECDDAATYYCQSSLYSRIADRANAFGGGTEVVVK
> 100 fold
